B1: Zinc finger homeobox protein 3, residues 2643 to 2698; numbered along this chain, Q15911 (parent)
chain: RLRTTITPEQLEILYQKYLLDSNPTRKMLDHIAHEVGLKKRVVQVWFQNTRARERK

Variants of: B1
assayRemarks: abundance fitness (aPCA) (normalised: wild type 0, dead -1); higher = more abundant; growth selection in yeast, the domain comes from the species named
recordedConditions: Homo sapiens
This listing pairs variants with measured abundance fitness.
Would you mind answering with just the numeric figure?

In the examples that follow, each entry is paired with its recorded abundance fitness.
L38F
-0.819
R51E
-0.163
A52S
-0.021
L2Q
0.102
R1Y
0.054

Task item: Would you kindly share the measured abundance fitness for Q48K ?
Reply: 0.096

Task item: Would you kindly share the measured abundance fitness for V42K ?
Reply: 0.16

Task item: Would you kindly share the measured abundance fitness for L11Y ?
Reply: -0.024

Task item: Would you kindly share the measured abundance fitness for Q10W ?
Reply: -0.856

Task item: Would you kindly share the measured abundance fitness for L29A ?
Reply: -0.552

Task item: Would you kindly share the measured abundance fitness for V36D ?
Reply: -0.853

Task item: Would you kindly share the measured abundance fitness for R51Q ?
Reply: 0.229

Task item: Would you kindly share the measured abundance fitness for Y15M ?
Reply: -0.049

Task item: Would you kindly share the measured abundance fitness for Y18E ?
Reply: -0.948

Task item: Would you kindly share the measured abundance fitness for D21E ?
Reply: -0.008
